# Protocol Details: Inhibition of Beta-lactamase GES-1 E104, G170 mutant preincubated for 5 mins before substrate addition using cephalothin substrate by spectrophotometry
Measurement Kind: IC50 (nM)
Give bare numbers, in nM.

[
  {
    "Molecule": "C[C@]1(Cn2ccnn2)[C@H](C(=O)O)N2C(=O)C[C@H]2S1(=O)=O",
    "IC50 [nM]": 30
  },
  {
    "Molecule": "O=C(O)[C@H]1/C(=C/CO)O[C@@H]2CC(=O)N21",
    "IC50 [nM]": 100
  }
]

Query compound follows.
Given the compound CC1(C)[C@H](C(=O)O)N2C(=O)C[C@H]2S1(=O)=O , what is its reported IC50?
1500

###

# Protocol Details: Inhibition of Beta-lactamase GES-6 K104, S170 mutant preincubated for 5 mins before substrate addition using cephalothin substrate by spectrophotometry
Measurement Kind: IC50 (µM)
One number for each entry, in µM.

[
  {
    "Molecule": "C[C@]1(Cn2ccnn2)[C@H](C(=O)O)N2C(=O)C[C@H]2S1(=O)=O",
    "Result Value": 0.5
  },
  {
    "Molecule": "CC1(C)[C@H](C(=O)O)N2C(=O)C[C@H]2S1(=O)=O",
    "Result Value": 8
  }
]

Continue with the next molecule.
# lookup: IC50 of O=C(O)[C@H]1/C(=C/CO)O[C@@H]2CC(=O)N21
1.7

###

# Protocol Details: Activity of Beta-lactamase GES-7 K104, G170 mutant
Record form. Attribute: kcat. Fill in for each entry.
One number for each entry, in s⁻¹.

Worked set:
[
  {
    "Molecule": "CC(C)(O/N=C(\\C(=O)N[C@@H]1C(=O)N2C(C(=O)[O-])=C(C[n+]3ccccc3)CS[C@H]12)c1csc(N)n1)C(=O)O",
    "kcat / s⁻¹": 132
  },
  {
    "Molecule": "C[C@H]1[C@H](NC(=O)/C(=N\\OC(C)(C)C(=O)O)c2csc(N)n2)C(=O)N1S(=O)(=O)O",
    "kcat / s⁻¹": 45.5
  },
  {
    "Molecule": "CC1(C)S[C@@H]2[C@H](NC(=O)Cc3ccccc3)C(=O)N2[C@H]1C(=O)O",
    "kcat / s⁻¹": 14.2
  }
]

Please turn your attention to the following entry.
Give the measured kcat of CO/N=C(\C(=O)N[C@@H]1C(=O)N2C(C(=O)O)=C(COC(C)=O)CS[C@H]12)c1csc(N)n1 .
31.4

###

# Protocol Details: Activity of Beta-lactamase GES-7 K104, G170 mutant
Kindly supply the reported Km values for the records listed here.

Example results:
[
  {
    "Molecule": "C[C@H]1[C@H](NC(=O)/C(=N\\OC(C)(C)C(=O)O)c2csc(N)n2)C(=O)N1S(=O)(=O)O",
    "Km": "241 µM"
  },
  {
    "Molecule": "CC(C)(O/N=C(\\C(=O)N[C@@H]1C(=O)N2C(C(=O)[O-])=C(C[n+]3ccccc3)CS[C@H]12)c1csc(N)n1)C(=O)O",
    "Km": "69.2 µM"
  },
  {
    "Molecule": "CO/N=C(\\C(=O)N[C@@H]1C(=O)N2C(C(=O)O)=C(COC(C)=O)CS[C@H]12)c1csc(N)n1",
    "Km": "81.6 µM"
  }
]

Continue with the compound presented below.
Requested field: Km. Item: CC1(C)S[C@@H]2[C@H](NC(=O)Cc3ccccc3)C(=O)N2[C@H]1C(=O)O
39 µM

These entries and their values trace back to ChEMBL document CHEMBL1687781.
